test system: NCI-H522 lung; assay: NCI tumour cell line growth inhibition, 48 h
MEASUREMENT TYPE: GI50

> print(dat)
                                   molecule  assayed.system     result
1  S=C(Nc1ccc(Cl)cc1)Nc1ccc(Cl)cc1 (tested in a mixture with another compound)   NCI-H522 lung    1.39 µM
2              Oc1cc2cccc[n+]2c2cccc(Cl)c12   NCI-H522 lung    94.8 µM
3       O=c1cc(-c2ccccc2)nc2n1CCN2Cc1ccccc1   NCI-H522 lung    20.8 µM
4  CCN(CC)CCCCCCCNc1c2ccc(Cl)cc2nc2ccc(OC)cc12   NCI-H522 lung     1.2 µM
5  COc1ccc(-c2cn[nH]c2-c2cc(OC)c(OC)c(OC)c2)cc1N   NCI-H522 lung  < 0.01 µM

====

In this section, each of the compounds is paired with its reported TGI.
system: UO-31 renal; assay: NCI tumour cell line growth inhibition, 48 h
MEASUREMENT TYPE: TGI

> print(dat)
                                    compound    result
 1  CC1NOC(=O)C1N=Nc1ccccc1Cl (stereo unspecified)   34.5 µM
 2  Cc1ccc(S(=O)(=O)NNC(=S)Nc2cccc3ccccc23)cc1  > 100 µM
 3  C=C1C(=O)OC2C1C(OC(=O)/C(C)=C/C)CC1(C)C(=O)CCC(=C)C21 (stereo unspecified)   13.3 µM
 4  COc1cc2[nH]c(-c3cccc(N(C)C)c3)cc(=O)c2cc1OC  > 100 µM
 5  C[C@]12CC(c3ccccc3O1)C(C(=O)NC13CC4CC(CC(C4)C1)C3)C(=O)N2 (stereo partly specified)   44.3 µM
 6   O=C1C=Cc2ccccc2/C1=C/c1[nH]c(=O)[nH]c1O   28.5 µM
 7  CCOC(=O)c1ccc(N2C(=O)/C(=C\OC)c3ccccc3C2=O)cc1   62.8 µM
 8            CCOP(=O)(OCC)/C(C#N)=C/c1ccco1  > 100 µM
 9      Cc1cc(Cl)ccc1N=NC(=O)NNc1ccc(Cl)cc1C   29.6 µM
10  O=C1C(=O)c2ccccc2C(O)=C1C(CCc1ccccc1)C1=C(O)c2ccccc2C(=O)C1=O  > 100 µM
11  S=C1N(c2ccc(Cl)cc2)C2=C(N=Nc3ccccc3)C(=Nc3ccccc3S2)N1c1ccccn1   21.7 µM

====

system: HL-60(TB) leukemia; assay: NCI tumour cell line growth inhibition, 48 h
MEASUREMENT TYPE: TGI

MOLECULE	RESULT
Cc1c2cc[nH]c(=O)c2cc2c(=O)c3cnccc3[nH]c12	> 100 µM
CCN(CC)CCOc1ccc(/C=C2\CC3C4CC=C5C[C@@H](N6CCCC6)CC[C@]5(C)C4CC[C@]3(C)[C@H]2O)cc1OC (some centres undefined)	35.2 µM
CC(=O)OCC1OC(n2c(=O)n(-c3ccccc3)c(=O)c3ccccc32)C(OC(C)=O)C(OC(C)=O)C1OC(C)=O (centres undefined)	> 100 µM
CC1OC(O[C@H]2CC[C@]3(C)[C@H]4CC=C5[C@@H]6[C@@H](C)[C@H](C)CC[C@]6(C(=O)O)CC[C@@]5(C(=O)O)[C@]4(C)CC[C@H]3C2(C)C)C(O)C(O)C1O (some centres undefined)	> 75 µM

Value source: PubChem BioAssay (NCI)
